# Test system: Mus musculus
# assay-comment: In vivo plasma glucose lowering in db/db mice, given at 100 mg/kg in mouse, after 3 hr
metric-name: Change of predose (%)
The answer is to be given in %; state only the numeric part.

C[n+]1c2ccccc2cc2[n-]c3ccccc3c21.Cl [CRYPTOLEPINE HYDROCHLORIDE]	-16.4
C[n+]1c2ccccc2cc2[n-]c3ccccc3c21 [CRYPTOLEPINE]	-19.7
Cn1c2ccccc2c2nc3ccccc3cc21	15.3

Here's the next entry for you.
[ask] What measured Change of predose is associated with C[n+]1c2ccccc2cc2[nH]c3ccccc3c21.[I-] [CRYPTOLEPTINE IODIDE] on Mus musculus?
[reply] -11.5

The measured values listed here are drawn from ChEMBL document CHEMBL1131567.
